Origin of the recorded values: the supplement of paper PMC10567573

Measured protein stability index of individual entries
B1: KRT15 (parent)
chain: FGGGSTRGGSLLAGGGGFGGGSLS

# Variants of: B1
# experiment summary: protein stability index of a GFP-peptide fusion (GPS, HEK-293T) (PSI 1-6); higher = more stable;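 further: lentivirally expressed fusions sorted by FACS into six bins by GFP to DsRed ratio, PSI derived from sequencing read proportions per bin multiplied by bin number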
# measurement context: c terminus: a fixed tail appended
Give the figure only, with no unit attached.

A selection of reference data follows.
S10P :: 2.12
T6V :: 1.23
S24N :: 1.71
L23M :: 2.73
G21S :: 1.95
G3Q :: 2.17
L11A :: 2.83
L11I :: 1.56

Ask: Tell us which protein stability index value is on record for S5Q
Reply: 2.55

Ask: Tell us which protein stability index value is on record for G20Y
Reply: 2.52
